- TARGET UNDER TEST: T1, human EphB4-His (human) (UniProt P54760)
- T1 sequence (looked up): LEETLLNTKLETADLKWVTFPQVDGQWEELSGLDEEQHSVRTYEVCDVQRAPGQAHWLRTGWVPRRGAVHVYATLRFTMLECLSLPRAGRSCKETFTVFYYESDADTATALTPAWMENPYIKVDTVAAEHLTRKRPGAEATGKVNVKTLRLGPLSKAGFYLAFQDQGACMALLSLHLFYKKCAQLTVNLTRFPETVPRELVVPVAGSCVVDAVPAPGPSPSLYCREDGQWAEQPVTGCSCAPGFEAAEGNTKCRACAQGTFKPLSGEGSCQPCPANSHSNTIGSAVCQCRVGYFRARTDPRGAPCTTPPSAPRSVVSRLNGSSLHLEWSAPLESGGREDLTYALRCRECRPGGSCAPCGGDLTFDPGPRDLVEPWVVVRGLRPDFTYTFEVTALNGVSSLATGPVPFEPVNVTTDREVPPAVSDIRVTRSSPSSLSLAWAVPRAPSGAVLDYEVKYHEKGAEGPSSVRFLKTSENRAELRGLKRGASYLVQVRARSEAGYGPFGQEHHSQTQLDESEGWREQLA
- ASSAY SUMMARY: SPR, BIAcore-3000, antibody coupled to CM5 chip, EphB4-His injected, 25 C

# BINDER, koff
data = [
    ("anti-EphB4 antibody clone YW30.35 (antibody, V domains shown) VH: EVQLVESGGGLVQPGGSLRLSCAASGFTISGYYIHWVRQAPGKGLEWVGGIYPYSGSTDYADSVKGRFTISADTSKNTAYLQMNSLRAEDTAVYYCARGSGLRLGGLDYAMDYWGQGTLVTVSS VL: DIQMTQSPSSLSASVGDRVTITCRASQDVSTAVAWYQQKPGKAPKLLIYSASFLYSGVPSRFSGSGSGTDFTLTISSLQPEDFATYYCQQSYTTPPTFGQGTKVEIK", "9.6e-05 s⁻¹"),
    ("anti-EphB4 antibody clone 30.35.2D13 (antibody, V domains shown) VH: EVQLVESGGGLVQPGGSLRLSCAASGFTISGYYIHWVRQAPGKGLEWVGGIYLYSGSTDYADSVKGRFTISADTSKNTAYLQMNSLRAEDTAVYYCARGSGLRLGGLDYAMDYWGQGTLVTVSS VL: DIQMTQSPSSLSASVGDRVTITCRASQDVSTAVAWYQQKPGKAPKLLIYSASFLYSGVPSRFSGSGSGTDFTLTISSLQPEDFATYYCQQTAQTPETFGQGTKVEIK", "< 5e-06 s⁻¹"),
    ("anti-EphB4 antibody clone YW30.35.2D8 (antibody, V domains shown) VH: EVQLVESGGGLVQPGGSLRLSCAASGFSISNYYLHWVRQAPGKGLEWVGGIYLYGSSSEYADSVKGRFTISADTSKNTAYLQMNSLRAEDTAVYYCARGSGLRLGGLDYAMDYWGQGTLVTVSS VL: DIQMTQSPSSLSASVGDRVTITCRASQDVSTAVAWYQQKPGKAPKLLIYSASFLYSGVPSRFSGSGSGTDFTLTISSLQPEDFATYYCQESTTTPPTFGQGTKVEIK", "< 5e-06 s⁻¹"),
    ("anti-EphB4 antibody clone YW30.35.2D12 (antibody, V domains shown) VH: EVQLVESGGGLVQPGGSLRLSCAASGFTISGYYIHWVRQAPGKGLEWVGGIYLYSGSRGYADSVKGRFTISADTSKNTAYLQMNSLRAEDTAVYYCARGSGLRLGGLDYAMDYWGQGTLVTVSS VL: DIQMTQSPSSLSASVGDRVTITCRASQDVSTAVAWYQQKPGKAPKLLIYSASFLYSGVPSRFSGSGSGTDFTLTISSLQPEDFATYYCQKSETIPPSFGQGTKVEIK", "< 5e-06 s⁻¹"),
]
